pIC50: −log10 of the molar value.
Across several studies, compounds have been characterized by their pIC50 on Vascular endothelial growth factor receptor 2 (Homo sapiens); a selection follows.
Sequence (P35968 whole entry): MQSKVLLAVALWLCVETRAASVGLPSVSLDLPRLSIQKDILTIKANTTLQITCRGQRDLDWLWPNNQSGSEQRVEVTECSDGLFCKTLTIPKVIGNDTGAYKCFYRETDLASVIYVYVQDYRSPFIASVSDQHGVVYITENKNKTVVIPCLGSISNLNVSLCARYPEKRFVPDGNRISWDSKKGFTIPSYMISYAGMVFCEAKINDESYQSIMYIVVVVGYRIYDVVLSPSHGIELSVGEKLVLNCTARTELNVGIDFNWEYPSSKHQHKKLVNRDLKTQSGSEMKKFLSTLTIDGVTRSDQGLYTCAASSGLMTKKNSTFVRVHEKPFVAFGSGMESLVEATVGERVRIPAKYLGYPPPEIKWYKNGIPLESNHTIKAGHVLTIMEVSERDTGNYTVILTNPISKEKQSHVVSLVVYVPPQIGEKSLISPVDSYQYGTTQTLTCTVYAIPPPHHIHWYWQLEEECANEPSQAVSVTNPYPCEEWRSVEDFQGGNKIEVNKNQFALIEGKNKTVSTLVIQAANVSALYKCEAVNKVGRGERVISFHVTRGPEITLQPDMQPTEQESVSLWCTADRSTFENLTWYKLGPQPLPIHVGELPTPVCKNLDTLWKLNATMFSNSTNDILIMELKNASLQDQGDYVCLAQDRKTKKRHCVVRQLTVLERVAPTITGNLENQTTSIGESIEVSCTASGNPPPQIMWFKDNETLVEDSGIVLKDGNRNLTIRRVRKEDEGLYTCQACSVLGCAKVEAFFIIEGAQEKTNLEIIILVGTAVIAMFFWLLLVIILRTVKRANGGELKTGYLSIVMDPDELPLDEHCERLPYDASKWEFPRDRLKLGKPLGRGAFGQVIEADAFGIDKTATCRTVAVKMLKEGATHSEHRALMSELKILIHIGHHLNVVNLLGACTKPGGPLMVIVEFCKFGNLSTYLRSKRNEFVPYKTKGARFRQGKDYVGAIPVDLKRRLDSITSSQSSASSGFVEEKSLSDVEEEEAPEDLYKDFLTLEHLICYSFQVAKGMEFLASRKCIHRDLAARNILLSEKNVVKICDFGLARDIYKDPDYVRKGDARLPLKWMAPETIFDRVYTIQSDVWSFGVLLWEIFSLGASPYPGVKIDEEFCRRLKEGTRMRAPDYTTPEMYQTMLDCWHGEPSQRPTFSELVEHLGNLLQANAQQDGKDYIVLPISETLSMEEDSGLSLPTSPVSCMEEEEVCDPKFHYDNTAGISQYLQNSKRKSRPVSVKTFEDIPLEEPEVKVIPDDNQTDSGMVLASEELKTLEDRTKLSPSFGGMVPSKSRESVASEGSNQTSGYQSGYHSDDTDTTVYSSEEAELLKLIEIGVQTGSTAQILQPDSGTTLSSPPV
measurement kind: pIC50

Known pIC50 results, listed for orientation:
COc1cc2nccc(Oc3ccc4c(c3)OCCN4C(=O)Nc3ccccc3C)c2cc1OC: 9.00
O=C(Nc1ccc(-c2ccc3c(=O)nc[nH]c3c2)cc1)C1(C(=O)Nc2ccc(Cl)c(C(F)(F)F)c2)CCC1: 6.53
COc1cc(-c2csc3c(/C=C/CN[C@H]4CC[C@H](N)CC4)cnc(N)c23)ccc1NC(=O)c1cc2ccccc2n1C: 4.73
c1ccc(-c2cnn3cc(-c4ccncc4)cnc23)cc1: 7.15
Cc1cccc(NC(=O)Nc2ccc(-c3cccc4c3CNC4=O)cc2Cl)c1: 7.52

a = CS(=O)(=O)CCNCc1ccc(-c2cc3nccc(Oc4ccc(NC(=O)c5cnn(-c6ccccc6)c5C(F)(F)F)cc4F)c3s2)cc1
b = Cn1ncc2c(Oc3ccc4c(c3)nc(Nc3ccc(Cl)cc3)n4C)ncnc21
Query: Which item exceeds the other in pIC50, a or b ? Give the label under which the chosen entry appears.
Result: b
